Catalogue of composite z-score readings, one per entry.
molecular target: Calmodulin-1 (Homo sapiens) (UniProt P0DP23); experiment: calcium-bound CALM1 binders on microarrays, profiling panel, artefact control for SMM control-protein annotation, biochemical, small-molecule microarray, Cy5-labelled CALM1, plus calcium (AID 1112); details: Cy5-CALM1 binding fluorescence, higher = more signal;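 note: score merges spot fluorescence with signal to noise from triplicate slides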

compound: O=C1CCCC=C1C(CCc1ccccc1)OC(=O)c1ccc(Br)cc1 (stereo not given)
system.name: Calmodulin-1 (Homo sapiens) (UniProt P0DP23)
composite z-score: -0.622
//
compound: C=Cc1ccc([C@H]2N[C@H](C(=O)O)CC[C@@H]2C)cc1
system.name: Calmodulin-1 (Homo sapiens) (UniProt P0DP23)
composite z-score: 0.222
//
compound: COC(=O)CC=C[C@@H](C)[C@@H](C=NOCC[C@@H]1C=C[C@H](OC(C)=O)[C@@H](COC(C)=O)O1)NS(=O)(=O)c1ccc(C)cc1
system.name: Calmodulin-1 (Homo sapiens) (UniProt P0DP23)
composite z-score: -1.47
//
compound: CO[C@H]1COC(=O)CC=C[C@@H](C)[C@H](OC)COC(=O)[C@@H]2CCCN2C(=O)CC=C[C@@H]1C
system.name: Calmodulin-1 (Homo sapiens) (UniProt P0DP23)
composite z-score: -1.82
//
compound: C[C@H]1CC[C@H]2C(=O)OC(CO)CN2[C@@H]1c1ccc(Br)cc1 (stereo not given in full)
system.name: Calmodulin-1 (Homo sapiens) (UniProt P0DP23)
composite z-score: -0.607
//
compound: Cc1ccc(S(=O)(=O)N[C@H]2COC(=O)CC=C[C@H](C)[C@@H](NS(=O)(=O)c3ccc(C)cc3)COC(=O)CC=C[C@@H]2C)cc1
system.name: Calmodulin-1 (Homo sapiens) (UniProt P0DP23)
composite z-score: -0.6
//
compound: O=C1C=C[C@@H](O)[C@@H]2[C@@H]3C(=O)N(c4ccc(F)cc4F)C(=O)[C@@H]3CC[C@@H]12
system.name: Calmodulin-1 (Homo sapiens) (UniProt P0DP23)
composite z-score: -0.282
//
compound: CO[C@H]1COC(=O)[C@@H](C)COC(=O)[C@H](COCc2ccccc2)NC(=O)CC=C[C@H]1C
system.name: Calmodulin-1 (Homo sapiens) (UniProt P0DP23)
composite z-score: -3.53
//
compound: CCN1C(=O)[C@H]2[C@H]3[C@H](O)[C@H](O)CC(=NOC[C@H]4O[C@H](c5ccccc5)C=C[C@@H]4Oc4ccc(OC)cc4)[C@@H]3CC[C@H]2C1=O
system.name: Calmodulin-1 (Homo sapiens) (UniProt P0DP23)
composite z-score: -0.332
//
compound: CCOC(=O)NN=C1C[C@@H](O)[C@@H](O)[C@@H]2[C@@H]3C(=O)N(c4ccc(F)cc4F)C(=O)[C@@H]3CC[C@@H]12
system.name: Calmodulin-1 (Homo sapiens) (UniProt P0DP23)
composite z-score: -0.205
//
compound: CCN1C(=O)[C@H]2[C@H]3[C@H](O)[C@H](O)CC(=NO[C@@H](C)c4cn([C@H](CO)Cc5ccccc5)nn4)[C@@H]3CC[C@H]2C1=O
system.name: Calmodulin-1 (Homo sapiens) (UniProt P0DP23)
composite z-score: -0.209
//
compound: CCOC(=O)[C@H](Cc1ccccc1)NC(=O)CCC1CC(OC(=O)NCc2ccc3c(c2)OCO3)CC2(CCCC(COC(=O)NCCc3ccccc3OC)O2)O1 (stereo not given in full)
system.name: Calmodulin-1 (Homo sapiens) (UniProt P0DP23)
composite z-score: 0.157
//
compound: COc1ccc(O[C@H]2C=C[C@@H](c3ccccc3)O[C@@H]2CON=CC[C@@H]2C=C[C@H](OC(C)=O)[C@@H](COC(C)=O)O2)cc1
system.name: Calmodulin-1 (Homo sapiens) (UniProt P0DP23)
composite z-score: -0.282
//
compound: COC(=O)CC=C[C@@H](C)[C@@H](C=NO[C@@H]1O[C@H](COC(C)=O)[C@@H](OC(C)=O)[C@H](OC(C)=O)[C@H]1OC(C)=O)OC
system.name: Calmodulin-1 (Homo sapiens) (UniProt P0DP23)
composite z-score: -1.48
//
compound: COC(=O)CC=C[C@@H](C)[C@@H](C=NOC[C@H]1O[C@H](c2ccccc2)C=C[C@@H]1Oc1ccc(OC)cc1)OC
system.name: Calmodulin-1 (Homo sapiens) (UniProt P0DP23)
composite z-score: -1.27

The origin of these recorded values is PubChem BioAssay.
